- Tested on: Klebsiella aerogenes DSM 30053
- TEST_METHOD_NOTES: growth (OD595) fold change vs plate DMSO controls (fold change (ratio)); higher = more growth
- CONDITION_DESCRIPTION: incubation time: 27 h, anaerobic, 37 °C
Where a name gives a salt, the structure may show the parent alone.
PROPERTY_MEASURED: growth

>  <MOLECULE>
COc1ccc(C(=O)c2ccccc2O)c(O)c1 [Dioxybenzone] (20 µM)

>  <PROPERTY_MEASURED>
growth

>  <NUMERIC_READOUT>
0.972

$$$$
>  <MOLECULE>
CC(C)NC(=N)NC(=N)Nc1ccc(Cl)cc1 [Proguanil hydrochloride] (20 µM)

>  <PROPERTY_MEASURED>
growth

>  <NUMERIC_READOUT>
0.964

$$$$
>  <MOLECULE>
CC1(C)S[C@@H]2[C@H](NC(=O)[C@H](C(=O)O)c3ccsc3)C(=O)N2[C@H]1C(=O)O [Ticarcillin sodium] (20 µM)

>  <PROPERTY_MEASURED>
growth

>  <NUMERIC_READOUT>
1.02

$$$$
>  <MOLECULE>
CCCCC(=O)O[C@H]1CC[C@H]2[C@@H]3CCc4cc(O)ccc4[C@H]3CC[C@]12C [Estradiol Valerate] (20 µM)

>  <PROPERTY_MEASURED>
growth

>  <NUMERIC_READOUT>
0.996

$$$$
>  <MOLECULE>
CN(C)CCCN1c2ccccc2Sc2ccc(C(F)(F)F)cc21 [Triflupromazine hydrochloride] (20 µM)

>  <PROPERTY_MEASURED>
growth

>  <NUMERIC_READOUT>
1.01

$$$$
>  <MOLECULE>
CN(C)CCCSC(=N)N [Dimaprit dihydrochloride] (20 µM)

>  <PROPERTY_MEASURED>
growth

>  <NUMERIC_READOUT>
1.02

$$$$
>  <MOLECULE>
CCCC(=O)Nc1ncnc2c1ncn2[C@@H]1O[C@@H]2COP(=O)(O)O[C@H]2[C@H]1OC(=O)CCC [Bucladesine sodium salt] (20 µM)

>  <PROPERTY_MEASURED>
growth

>  <NUMERIC_READOUT>
1.04

$$$$
>  <MOLECULE>
Nc1nc(N)nc(-c2cc(Cl)ccc2Cl)n1 [Irsogladine maleate] (20 µM)

>  <PROPERTY_MEASURED>
growth

>  <NUMERIC_READOUT>
0.961

$$$$
